B1: Retinoic acid receptor beta, residues 85 to 161; numbered along this chain, P10826 (parent)
chain: YKPCFVCQDKSSGYHYGVSACEGCKGFFRRSIQKNMIYTCHRDKNCVINKVTRNRCQYCRLQKCFEVGMSKESVRND

Variants of: B1
Test: abundance fitness (aPCA) (normalised: wild type 0, dead -1); higher = more abundant; growth selection in yeast, the domain comes from the species named
Conditions: Homo sapiens
abundance fitness vs -0.2: at or above is Condition met, below is Condition not met.

Some solved entries appear below for comparison.
# CHANGES, DISCRETE LABEL
data = [
    ("K2H", "Condition met"),
    ("A20M", "Condition not met"),
    ("C24Y", "Condition not met"),
    ("V47W", "Condition met"),
]

Problem: Test whether the variant `R53N` records abundance fitness of -0.2 or higher.
Solution: Condition met

Problem: Would you say `G13H` shows abundance fitness at minimum -0.2?
Solution: Condition not met

Problem: Answer whether abundance fitness of `K34R` is greater than or equal to -0.2.
Solution: Condition met

Data provenance: the Human Domainome abundance scans (Beltran et al. 2025)
